test: Pharmacokinetic test - mice; type: in vivo, Balb/c mice; conditions: mouse, 3 mg/kg; Mice PK, IV, 3 mpk, single injection, plasma
experimental-readout: Cmax (µg/mL)
Quick reminder: number only, in µg/mL, skip the unit.

Give Cmax for [2H]C1([2H])OC(=O)[C@](O)(CC)c2cc3n(c(=O)c21)Cc1c-3nc2cc(F)c(C)c3c2c1[C@@H](N)CC3
0.902

* * *

Assay: Pharmacokinetic test - mice
Format: in vivo, Balb/c mice
Settings: mouse, 3 mg/kg; Mice PK, IV, 3 mpk, single injection, plasma
Description: Experimental objective: To evaluate the pharmacokinetic characteristics of the compound of the present application in mice. Balb/c mice (purchased from Beijing Vital River) were randomly divided, 12 mice/group, half male and half female, and were injected once with a sample (10% DMSO-90% (20% 2-hydroxypropyl-β-cyclodextrin-physiological saline), diluted according to the dose). […]
experimental-readout: AUC(0-inf) (ng·h/mL)
Numbers only; they are read as ng·h/mL.

Identify measured AUC(0-inf) corresponding to [2H]C1([2H])OC(=O)[C@](O)(CC)c2cc3n(c(=O)c21)Cc1c-3nc2cc(F)c(C)c3c2c1[C@@H](N)CC3
321
